Below, each entry is listed alongside its reported IC50.
- target_system: UniProt:P41968
- Sequence (P41968 whole entry): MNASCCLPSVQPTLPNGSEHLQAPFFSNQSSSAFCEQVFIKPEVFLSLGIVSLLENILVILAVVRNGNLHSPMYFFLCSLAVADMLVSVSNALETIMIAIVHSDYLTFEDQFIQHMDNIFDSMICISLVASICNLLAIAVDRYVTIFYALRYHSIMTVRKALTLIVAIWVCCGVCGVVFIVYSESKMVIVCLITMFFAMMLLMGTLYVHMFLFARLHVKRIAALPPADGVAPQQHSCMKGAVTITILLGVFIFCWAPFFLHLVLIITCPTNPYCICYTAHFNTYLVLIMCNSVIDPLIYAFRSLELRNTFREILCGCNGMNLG
- test: Displacement of [125I]NDPalphaMSH from human cloned MC3R expressed in CHO cells
- Type: cell-based
measurement_label: IC50

{"columns": ["compound", "endpoint_result"],
 "data": [
  ["CCCC[C@H](NC(C)=O)C(=O)N[C@H]1CC(=O)NCCCC[C@@H](C(N)=O)NC(=O)[C@H](Cc2c[nH]c3ccccc23)NC(=O)[C@@H]2CCCCN2C(=O)[C@@H](Cc2ccc(-c3ccccc3)cc2)NC(=O)[C@@H]2CC3CCCCC3N2C1=O (stereo partly drawn)", "> 5 µM"],
  ["CCCC[C@H](NC(C)=O)C(=O)N[C@H]1CC(=O)NCCCC[C@@H](C(N)=O)NC(=O)[C@H](Cc2c[nH]c3ccccc23)NC(=O)[C@@H]2CCCCN2C(=O)[C@@H](Cc2ccc(-c3ccccc3)cc2)NC(=O)[C@H](C2CCCCC2)NC1=O", "> 10 µM"],
  ["CCCC[C@H](NC(C)=O)C(=O)N[C@H]1CC(=O)NCCCC[C@@H](C(N)=O)NC(=O)[C@H](Cc2c[nH]c3ccccc23)NC(=O)[C@@H]2CCCN2C(=O)[C@@H](CC2CCCCC2)NC(=O)[C@H](Cc2c[nH]cn2)NC1=O", "> 10 µM"]
]}
